This section presents Ki values reported for Beta-1 adrenergic receptor (Mus musculus) in the literature.

Please provide the recorded Ki for `COCCc1ccc(OC[C@H](O)CNCCc2ccc(OCCSSCCN)c(OC)c2)cc1` , tested on Beta-1 adrenergic receptor (Mus musculus).
Sequence (P34971 whole entry): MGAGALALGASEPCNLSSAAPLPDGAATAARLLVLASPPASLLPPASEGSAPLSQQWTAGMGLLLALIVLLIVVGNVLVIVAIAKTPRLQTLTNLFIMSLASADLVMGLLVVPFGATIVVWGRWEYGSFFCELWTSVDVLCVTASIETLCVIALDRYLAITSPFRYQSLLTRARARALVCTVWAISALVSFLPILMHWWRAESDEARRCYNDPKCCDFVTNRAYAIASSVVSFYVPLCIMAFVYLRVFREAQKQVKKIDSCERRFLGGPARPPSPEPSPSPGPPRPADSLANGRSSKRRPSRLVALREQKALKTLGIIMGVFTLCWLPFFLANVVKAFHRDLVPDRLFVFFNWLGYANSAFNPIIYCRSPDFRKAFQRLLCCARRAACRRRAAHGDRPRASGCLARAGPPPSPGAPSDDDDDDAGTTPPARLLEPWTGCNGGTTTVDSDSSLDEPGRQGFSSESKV
740 nM

Please provide the recorded Ki for `COc1cc(CCNCCCOc2ccc(O)c(O)c2)ccc1OCCCc1ccccc1` , tested on Beta-1 adrenergic receptor (Mus musculus).
1200 nM

Please provide the recorded Ki for `COc1ccccc1OCCNC[C@H](O)Cc1ccc(O)c(O)c1` , tested on Beta-1 adrenergic receptor (Mus musculus).
> 10000 nM

Please provide the recorded Ki for `COc1cc(CCNC[C@@H](O)c2ccc(O)c3c2OCC(=O)N3)ccc1OCCCc1ccccc1` , tested on Beta-1 adrenergic receptor (Mus musculus).
180 nM

Please provide the recorded Ki for `Cn1cc(C(F)(F)F)nc1-c1ccc(OC[C@@H](O)CNCCOc2ccc(OCCCSSCCN)c(C(N)=O)c2)cc1` , tested on Beta-1 adrenergic receptor (Mus musculus).
71 nM

Please provide the recorded Ki for `COc1cc(CCNC[C@@H](O)c2ccc(O)c3[nH]c(=O)ccc23)ccc1OCCCc1ccccc1` , tested on Beta-1 adrenergic receptor (Mus musculus).
300 nM

Please provide the recorded Ki for `COc1ccccc1OCCNCCc1cccc2[nH]c3ccccc3c12` , tested on Beta-1 adrenergic receptor (Mus musculus).
330 nM

Please provide the recorded Ki for `COc1ccccc1OCCNC[C@@H](O)COc1ccc(O)c(O)c1` , tested on Beta-1 adrenergic receptor (Mus musculus).
7400 nM

Please provide the recorded Ki for `CC(C)NC[C@@H](O)COc1ccc(O)c(O)c1` , tested on Beta-1 adrenergic receptor (Mus musculus).
860 nM

Please provide the recorded Ki for `COc1cc(CCNC[C@@H](O)COc2cccc3ccccc23)ccc1OCCCSSCCN` , tested on Beta-1 adrenergic receptor (Mus musculus).
33 nM

Please provide the recorded Ki for `COCCc1ccc(OC[C@@H](O)CNCCc2ccc(OCCSSCCN)c(OC)c2)cc1` , tested on Beta-1 adrenergic receptor (Mus musculus).
27 nM

Please provide the recorded Ki for `COc1cc(CCNC[C@H](O)c2ccc(O)c3[nH]c(=O)ccc23)ccc1OCCCc1ccccc1` , tested on Beta-1 adrenergic receptor (Mus musculus).
5.8 nM

Please provide the recorded Ki for `COc1cc(CCNC[C@H](O)COc2ccc(COCCOC(C)C)cc2)ccc1OCCSSCCN` , tested on Beta-1 adrenergic receptor (Mus musculus).
2.6 nM

Please provide the recorded Ki for `COc1ccccc1OCCNC[C@@H](O)c1cccc2[nH]c3ccccc3c12` , tested on Beta-1 adrenergic receptor (Mus musculus).
340 nM

Please provide the recorded Ki for `COc1cc(CCNC[C@@H](O)c2ccc(O)c(O)c2)ccc1OCCCc1ccccc1` , tested on Beta-1 adrenergic receptor (Mus musculus).
530 nM

Please provide the recorded Ki for `COc1ccccc1OCCNC[C@@H](O)Cc1ccc(O)c(O)c1` , tested on Beta-1 adrenergic receptor (Mus musculus).
2400 nM

Please provide the recorded Ki for `COCCc1ccc(OC[C@H](O)CNCCc2ccc(OCCCSSCCN)c(OC)c2)cc1` , tested on Beta-1 adrenergic receptor (Mus musculus).
220 nM

Please provide the recorded Ki for CC(C)NCC(O)COc1ccc(COCCOC(C)C)cc1 (racemic) , tested on Beta-1 adrenergic receptor (Mus musculus).
5.3 nM

Please provide the recorded Ki for `Cn1cc(C(F)(F)F)nc1-c1ccc(OC[C@@H](O)CNCCOc2ccc(OCCSSCCN)c(C(N)=O)c2)cc1` , tested on Beta-1 adrenergic receptor (Mus musculus).
49 nM

Please provide the recorded Ki for `COc1cc(CCNC[C@@H](O)COc2cccc3ccccc23)ccc1OCCSSCCN` , tested on Beta-1 adrenergic receptor (Mus musculus).
29 nM

Please provide the recorded Ki for `COc1cc(CCNC[C@H](O)COc2ccc(-c3nc(C(F)(F)F)cn3C)cc2)ccc1OCCSSCCN` , tested on Beta-1 adrenergic receptor (Mus musculus).
150 nM

Please provide the recorded Ki for OCc1cc(C(O)CNCCCCCCOCCCCc2ccccc2)ccc1O (racemic) , tested on Beta-1 adrenergic receptor (Mus musculus).
550 nM

Please provide the recorded Ki for `COc1cc(CCNC[C@H](O)c2ccc(O)c3c2OCC(=O)N3)ccc1OCCCc1ccccc1` , tested on Beta-1 adrenergic receptor (Mus musculus).
5.1 nM
